target: T1, recombinant human sc-uPA (human, UniProt P00749 21-431); test: SPR, mAb immobilised
T1 construct: 411 amino acid single-chain zymogen expressed in HEK293; the 20-residue signal peptide is not present in the mature protein; also called human single-chain uPA; pro-uPA
Each entry below carries its reported pKd.
pKd is a log-scale quantity: -log10 of the concentration expressed in molar.

BINDER: rec0266-0000-0010-VH_D95Y (antibody, mouse IgG1, V domains shown) VH: DVKLVESGGGLVKPGGSLKLSCVASGFTFSSYTMSWVRQTPEKRLEWVATISGGGSHIYYADSVKGRFTISRDNAKNTLYLQMSSLKSEDTAIYYCTRYGRDGSWFAYWGQGTLVTVSA VL: DIVMTQSPATLSVTPGDRVSLSCRTSQSIGDYLHWYQQKSHESPRLLIKYVSQSISGIPSRFSGSGSGSDFTLSINSVESEDVGVYYCQNSHSFPLTFGSGTKLELKR
pKd: 8.30

response.value for rec0266-0000-0010-VH_D98I (antibody, mouse IgG1, V domains shown) VH: DVKLVESGGGLVKPGGSLKLSCVASGFTFSSYTMSWVRQTPEKRLEWVATISGGGSHIYYADSVKGRFTISRDNAKNTLYLQMSSLKSEDTAIYYCTRDGRIGSWFAYWGQGTLVTVSA VL: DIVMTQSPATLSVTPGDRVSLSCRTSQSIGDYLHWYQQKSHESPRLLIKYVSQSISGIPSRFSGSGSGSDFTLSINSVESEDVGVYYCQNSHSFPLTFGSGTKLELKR (field: pKd) = 8.70

Input rec0266-0000-0010-VH_G99K (antibody, mouse IgG1, V domains shown) VH: DVKLVESGGGLVKPGGSLKLSCVASGFTFSSYTMSWVRQTPEKRLEWVATISGGGSHIYYADSVKGRFTISRDNAKNTLYLQMSSLKSEDTAIYYCTRDGRDKSWFAYWGQGTLVTVSA VL: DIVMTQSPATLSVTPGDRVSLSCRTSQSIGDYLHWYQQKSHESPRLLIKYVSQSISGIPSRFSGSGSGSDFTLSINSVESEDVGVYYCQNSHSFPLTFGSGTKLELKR . Output pKd: 8.32
